# System: KM12
# experimentSummary: NCI tumour cell line growth inhibition, 48 h
Calls of active or inactive are those of the source. Rule as the data show it: active = GI50 up to about 1.1 µM and inactive = higher.
Item-by-item account of GI50
observationType: GI50

>  <compound>
COc1cc2c(cc1OCCCCN1C(=O)c3cccc4cccc(c34)C1=O)N=C[C@@H]1CCCN1C2=O

>  <observationType>
GI50

>  <experimentalValue>
3.57 µM (inactive)

$$$$
>  <compound>
CC1OC2=N[C@@H]1C(=O)N[C@@H](C(C)C)C1=N[C@H](C(=O)N[C@@H](C(C)C)C3=N[C@H](C(=O)N[C@@H](C(C)C)C4=N[C@H](C(=O)N[C@H]2C(C)C)C(C)O4)C(C)O3)C(C)O1 (stereo not given in full)

>  <observationType>
GI50

>  <experimentalValue>
> 10 µM (inactive)

$$$$
>  <compound>
CNC1(c2cc3ccccc3s2)CCCCC1

>  <observationType>
GI50

>  <experimentalValue>
17.9 µM (inactive)

$$$$
>  <compound>
OC(Cc1ccc2ccccc2n1)(C(F)(F)Cl)C(F)(F)Cl

>  <observationType>
GI50

>  <experimentalValue>
> 10 µM (inactive)

$$$$
>  <compound>
C[n+]1c2ccccc2c(CNC(CS)C(=O)O)c2ccccc21 (stereo not given)

>  <observationType>
GI50

>  <experimentalValue>
19.7 µM (inactive)

$$$$
>  <compound>
COc1ccc(C(=O)C(C(=O)C(=O)Nc2nc3ccc(OC)cc3s2)c2ccc(OC)cc2)cc1 (stereo not given)

>  <observationType>
GI50

>  <experimentalValue>
> 100 µM (inactive)

$$$$
>  <compound>
CC(N)Cc1ccc(C(=O)Cl)cc1 (stereo not given)

>  <observationType>
GI50

>  <experimentalValue>
> 100 µM (inactive)

$$$$
>  <compound>
CN(C)C(=S)/N=c1\ss/c(=N\S(=O)(=O)c2ccccc2)n1C

>  <observationType>
GI50

>  <experimentalValue>
> 100 µM (inactive)

$$$$
>  <compound>
COC(=O)c1csc(-c2csc(CCNC(=O)OC(C)(C)C)n2)n1

>  <observationType>
GI50

>  <experimentalValue>
> 100 µM (inactive)

$$$$
>  <compound>
C[C@]12CCC(=O)C(OC(=O)c3ccc([N+](=O)[O-])cc3)=C1CCC2=O

>  <observationType>
GI50

>  <experimentalValue>
> 100 µM (inactive)

$$$$

###

# Test system: SNB-19
# experimentSummary: NCI tumour cell line growth inhibition, 48 h
Active and inactive are the calls of the source. Cut-off read from the data, not from the text of the source: active = GI50 up to about 1.1 µM and inactive = higher.

>  <compound>
C=C1OC2OC(C)C(NC(=O)OCC(Cl)(Cl)Cl)C(OC(C)=O)C2O1 (stereo unspecified)

>  <systemUnderTest>
SNB-19

>  <GI50>
> 100 µM (inactive)

$$$$
>  <compound>
Nc1ccc2c(c1)C(=O)N1CCC[C@H]1C(=O)N2

>  <systemUnderTest>
SNB-19

>  <GI50>
> 100 µM (inactive)

$$$$
>  <compound>
Cc1ccc(NC(=O)c2cc(S(=O)(=O)N3CCNNC3=O)c(S)cc2Cl)cc1

>  <systemUnderTest>
SNB-19

>  <GI50>
> 100 µM (inactive)

$$$$
>  <compound>
CN(C)c1nc2nonc2nc1Nc1ccccc1

>  <systemUnderTest>
SNB-19

>  <GI50>
> 100 µM (inactive)

$$$$
>  <compound>
N#CC(C(=O)CCCC(=O)Nc1ccc(Cl)cc1Cl)c1ccc(Cl)cc1 (stereo unspecified)

>  <systemUnderTest>
SNB-19

>  <GI50>
> 100 µM (inactive)

$$$$
>  <compound>
COc1cc([C@@H]2c3cc4c(cc3[C@@H](/N=C/c3ccc(C(=O)O[C@@H](C(=O)O[C@H]5C[C@@]6(O)[C@@H](OC(=O)c7ccccc7)[C@@H]7[C@]8(OC(C)=O)CO[C@@H]8C[C@H](O)[C@@]7(C)C(=O)[C@H](OC(C)=O)C(=C5C)C6(C)C)[C@@H](NC(=O)c5ccccc5)c5ccccc5)cc3)[C@H]3COC(=O)[C@H]23)OCO4)cc(OC)c1O

>  <systemUnderTest>
SNB-19

>  <GI50>
1.22 µM (inactive)

$$$$
>  <compound>
C=C1C(=O)OC2/C=C(\C)C(O)CC(O)C(C)(O)CC(OC(=O)/C(C)=C/C)C12 (stereo unspecified)

>  <systemUnderTest>
SNB-19

>  <GI50>
66.5 µM (inactive)

$$$$
>  <compound>
O=C(CCc1ccccc1)NCCc1ccc(O)c(O)c1

>  <systemUnderTest>
SNB-19

>  <GI50>
48.9 µM (inactive)

$$$$
>  <compound>
Cc1ccc(C(C)(C)C[P+](C)(c2ccccc2)c2ccccc2)cc1

>  <systemUnderTest>
SNB-19

>  <GI50>
12 µM (inactive)

$$$$
>  <compound>
COc1cc(-c2c3c([nH]c(=O)c2C#N)-c2cc([N+](=O)[O-])ccc2CCC3)cc(OC)c1OC

>  <systemUnderTest>
SNB-19

>  <GI50>
30.8 µM (inactive)

$$$$
>  <compound>
N=C(CC/C(N)=N/O)NO

>  <systemUnderTest>
SNB-19

>  <GI50>
> 100 µM (inactive)

$$$$
>  <compound>
C=CCOCn1cc(F)c(=O)[nH]c1=O

>  <systemUnderTest>
SNB-19

>  <GI50>
> 100 µM (inactive)

$$$$
>  <compound>
COc1ccc2c(c1)CCC/C2=N\NS(=O)(=O)c1c(C)cc(C)cc1C

>  <systemUnderTest>
SNB-19

>  <GI50>
41.6 µM (inactive)

$$$$
>  <compound>
C[C@]12CCC(=O)C(OC(=O)c3ccc([N+](=O)[O-])cc3)=C1CCC2=O

>  <systemUnderTest>
SNB-19

>  <GI50>
> 100 µM (inactive)

$$$$
>  <compound>
O=C(C(=O)n1ccc2ccccc21)c1c[nH]c2ccccc12

>  <systemUnderTest>
SNB-19

>  <GI50>
> 10 µM (inactive)

$$$$
>  <compound>
Cc1[nH]c2ccccc2c1-c1cc(-c2cc(-c3c(C)[nH]c4ccccc34)on2)no1

>  <systemUnderTest>
SNB-19

>  <GI50>
> 100 µM (inactive)

$$$$
>  <compound>
Cc1ccc(N2C(N)=C(C#N)C(C#N)(C#N)C2c2ccccc2)cc1 (stereo unspecified)

>  <systemUnderTest>
SNB-19

>  <GI50>
17.5 µM (inactive)

$$$$
>  <compound>
CCc1ccccc1N1C(=O)C(=O)C(c2nc3ccccc3s2)C(=O)C1=O

>  <systemUnderTest>
SNB-19

>  <GI50>
> 100 µM (inactive)

$$$$
>  <compound>
CCOC(=O)c1cc2c3c(cc(OC)c2[nH]1)N(C(=O)OCC)CC3

>  <systemUnderTest>
SNB-19

>  <GI50>
> 100 µM (inactive)

$$$$
>  <compound>
NC(=O)C1CCCN1C(=O)C(Cc1c[nH]cn1)NC(=O)C1CCCC1 (stereo unspecified)

>  <systemUnderTest>
SNB-19

>  <GI50>
> 100 µM (inactive)

$$$$
>  <compound>
COc1ccc2nc3ccc(OC)cc3c(SCc3ccccc3)c2c1

>  <systemUnderTest>
SNB-19

>  <GI50>
> 100 µM (inactive)

$$$$
>  <compound>
Nc1c(Cl)ncnc1N[C@@H]1C[C@H]1CO

>  <systemUnderTest>
SNB-19

>  <GI50>
> 100 µM (inactive)

$$$$
>  <compound>
CCC(c1c[nH]c2ccc(Br)cc12)c1c[nH]c2ccc(Br)cc12

>  <systemUnderTest>
SNB-19

>  <GI50>
8.57 µM (inactive)

$$$$
>  <compound>
Nc1ncnc2c1ncn2C1OC(CSCC(F)(F)F)C(O)C1O (stereo unspecified)

>  <systemUnderTest>
SNB-19

>  <GI50>
> 100 µM (inactive)

$$$$
>  <compound>
CN(C)C(=N)c1ccccc1

>  <systemUnderTest>
SNB-19

>  <GI50>
> 100 µM (inactive)

$$$$
>  <compound>
CCn1c(SCc2nnc(Nc3ccccc3)s2)nc2ccccc2c1=O

>  <systemUnderTest>
SNB-19

>  <GI50>
3.5 µM (inactive)

$$$$
>  <compound>
CC(C)CCCC(C)[C@H]1CCC2[C@@H]3CCC4Nc5nocc5C[C@]4(C)C3CC[C@@]21C (stereo partly specified)

>  <systemUnderTest>
SNB-19

>  <GI50>
21.2 µM (inactive)

$$$$
>  <compound>
Cn1nc(-c2ccccc2)c(C(=O)/C=C/c2ccc(Cl)cc2)c(N2CCOCC2)c1=O

>  <systemUnderTest>
SNB-19

>  <GI50>
14.3 µM (inactive)

$$$$
>  <compound>
CN1CCN(CC(=O)Nc2cccc3ccccc23)CC1

>  <systemUnderTest>
SNB-19

>  <GI50>
> 100 µM (inactive)

$$$$
>  <compound>
O=C1N/C(=N/N=C\c2ccccc2)N/C1=C/c1ccc(Cl)cc1

>  <systemUnderTest>
SNB-19

>  <GI50>
15.6 µM (inactive)

$$$$
>  <compound>
COC(=O)c1cc(C)ccc1/C=C1\Cc2cc(C)c(C)cc2C1=O

>  <systemUnderTest>
SNB-19

>  <GI50>
29.9 µM (inactive)

$$$$
>  <compound>
O=c1c(C(c2ccc(Cl)cc2)c2c(O)c3ccccc3n(-c3ccccc3)c2=O)c(O)c2ccccc2n1-c1ccccc1

>  <systemUnderTest>
SNB-19

>  <GI50>
17.7 µM (inactive)

$$$$
>  <compound>
OCCc1cnco1

>  <systemUnderTest>
SNB-19

>  <GI50>
> 100 µM (inactive)

$$$$
>  <compound>
CCOC(=O)c1c(N/C(S)=N/c2ccccc2)sc2c1CCOC2

>  <systemUnderTest>
SNB-19

>  <GI50>
> 100 µM (inactive)

$$$$
>  <compound>
O=C(O)[C@@H]1CCCN1

>  <systemUnderTest>
SNB-19

>  <GI50>
> 100 µM (inactive)

$$$$
>  <compound>
C[C@]12C/C(=C/O)C(=O)C(O)=C1CC[C@@H]1C2CC[C@@]2(C)C1CC[C@@H]2O (stereo partly specified)

>  <systemUnderTest>
SNB-19

>  <GI50>
18.3 µM (inactive)

$$$$
>  <compound>
NNC(=S)N/N=C(\CCCC(=O)NCCc1ccccc1)CC(=O)c1ccccc1

>  <systemUnderTest>
SNB-19

>  <GI50>
> 100 µM (inactive)

$$$$
>  <compound>
CN1C(=O)c2ccccc2OC12C=Cc1c(ccc3ccccc13)O2 (stereo unspecified)

>  <systemUnderTest>
SNB-19

>  <GI50>
4.49 µM (inactive)

$$$$
>  <compound>
CC(=O)OCC1=C(C(=O)O)C(c2ccc3c(c2)OCO3)c2cc3c(cc2O1)OCO3 (stereo unspecified)

>  <systemUnderTest>
SNB-19

>  <GI50>
> 100 µM (inactive)

$$$$
>  <compound>
COC1C(OC(=O)c2ccc(C)[nH]2)C(O)C(Oc2ccc3c(O)c(NC(=O)c4ccc(O)c(CC=C(C)C)c4)c(=O)oc3c2Cl)OC1(C)C (stereo unspecified)

>  <systemUnderTest>
SNB-19

>  <GI50>
15.7 µM (inactive)

$$$$
>  <compound>
O=C(O)CN1CCSc2ccccc2CN(CC(=O)O)CCSc2ccccc2C1

>  <systemUnderTest>
SNB-19

>  <GI50>
> 100 µM (inactive)

$$$$
